# Test system: Anopheles stephensi
# TEST DESCRIPTION: Anopheles stephensi treated well plate contact test: knockdown and mortality
# Type: in vivo
# MEASUREMENT CONTEXT: test compound 200 ppm, without TFNA-AM, after 24 hours
Readings of mortality % 24, without TFNA-AM for the listed compounds
Report as a plain number; the unit % is understood.

Some compounds with known mortality % 24, without TFNA-AM results, for comparison:
N#Cc1ccc(CC(=NNC(=O)Nc2ccc(OC(F)(F)F)cc2)c2cccc(C(F)(F)F)c2)cc1 (mixture of isomers) [Metaflumizone] : 0
CN(C(=O)c1ccccc1)c1cccc(C(=O)Nc2c(Br)cc(C(F)(C(F)(F)F)C(F)(F)F)cc2C(F)(F)F)c1F [Broflanilide] : 100
CO/C=C(/C(=O)OC)c1ccccc1COc1cccc(C(F)(F)F)n1 [Picoxystrobin] : 100

Sample O=c1c(-c2cccc(C(F)(F)F)c2)c([O-])[n+](Cc2cncnc2)c2ccccn12 [Triflumizopyrim] — what was its mortality % 24, without TFNA-AM?
40

// repeat for O=C1C=C(N(Cc2ccc(Cl)nc2)CC(F)F)CO1 [Flupyradifurone] and report
20

###

# Tested on: Anopheles stephensi
# TEST DESCRIPTION: Anopheles stephensi treated well plate contact test: knockdown and mortality
# Assay type: in vivo
# MEASUREMENT CONTEXT: test compound 0.02 ppm plus 2 ppm TFNA-AM, after 24 hours
Known mortality % 24, with TFNA-AM of a selection of molecules
Numeric only. Scale: %

CC(C)=C[C@@H]1[C@@H](C(=O)O[C@H](C#N)c2cccc(Oc3ccccc3)c2)C1(C)C (relative stereo) [d-d, trans cyphenothrin] : 60
COP(=S)(OC)Oc1ccc([N+](=O)[O-])c(C)c1 : 40
Cc1c(COC(=O)[C@@H]2[C@H](/C=C(\Cl)C(F)(F)F)C2(C)C)cccc1-c1ccccc1 (racemic) : 100
CC1(C)C(C=C(Cl)Cl)C1C(=O)OC(C#N)c1cccc(Oc2ccccc2)c1 (stereo not drawn) : 80
CCOC(=O)CC(SP(=S)(OC)OC)C(=O)OCC (stereo not drawn) : 0

GET /values?readout=mortality % 24, with TFNA-AM&system=Anopheles stephensi&item= CCOc1ccc(C(C)(C)COCc2cccc(Oc3ccccc3)c2)cc1
60

Could you do the same for CNC(=O)Oc1cccc2c1OC(C)(C)O2 , please?
20

Could you do the same for CNC(=O)Oc1ccccc1OC(C)C , please?
40

Likewise for N#Cc1nn(-c2c(Cl)cc(C(F)(F)F)cc2Cl)c(N)c1[S+]([O-])C(F)(F)F (stereo not drawn) ?
0

###

Reported pest or weed control at 0.02 ppm values for the following compounds.
# System: Anopheles stephensi
# TEST DESCRIPTION: Anopheles stephensi treated well plate contact test: knockdown and mortality
# Assay type: in vivo
# MEASUREMENT CONTEXT: Anopheles stephensi; test compound 0.02 ppm, without TFNA-AM, knockdown after 1 hour; read-out: Knock Down, without TFNA-AM

// query pest or weed control at 0.02 ppm value for entry N#Cc1nn(-c2c(Cl)cc(C(F)(F)F)cc2Cl)c(N)c1[S+]([O-])C(F)(F)F (stereo not shown) [Fipronil]
0%

Cool, now Cc1c(COC(=O)[C@@H]2[C@H](/C=C(\Cl)C(F)(F)F)C2(C)C)cccc1-c1ccccc1 (racemic) [Bifenthrin]
20%

Consider next the compound CCOC(=O)CC(SP(=S)(OC)OC)C(=O)OCC (stereo not shown) [Malathion] in the same way.
20%

// repeat for CCOc1ccc(C(C)(C)COCc2cccc(Oc3ccccc3)c2)cc1 [Etofenprox] and report
0%
